tested on: ERR1 (also known as ERR-α or ERR-1) (Homo sapiens, UniProt P11474)
Sequence (P11474 193-421 limits assumed, species assumed): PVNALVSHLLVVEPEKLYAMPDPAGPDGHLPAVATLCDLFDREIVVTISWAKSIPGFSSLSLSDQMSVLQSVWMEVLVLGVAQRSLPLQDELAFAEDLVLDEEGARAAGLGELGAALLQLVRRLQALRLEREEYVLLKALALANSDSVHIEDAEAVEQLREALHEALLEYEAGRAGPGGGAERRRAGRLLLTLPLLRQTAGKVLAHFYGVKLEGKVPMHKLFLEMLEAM
experimental details: TR-FRET assay (disruption of co-activator peptide binding to ERR1 LBD)
measurement parameters: 6 nM 6His-ERR1LBD, 6 nM GST-SRC-2 peptide; average of 3 independent experiments
Method: Time-Resolved Fluorescence Resonance Energy Transfer (TR-FRET) experiments were performed to examine the functional response of ERR1 (also known as ERR-α or ERR-1) ligands. The TR-FRET assay described herein relied on the conformation of ERR1 for binding to a co-activator peptide: when a test compound binds to ERR1 and alters its conformation, it can disrupt the binding of the co-activator peptide. […]
endpoint: pEC50
By convention, pEC50 is the negative base-10 log of a molar concentration.

**Q:** Name the reported pEC50 value associated with the molecule O=C1S/C(=C\c2ccc3c(cnn3Cc3ccc(Cl)cc3C(F)(F)F)c2)C(=O)N1C[C@@H]1C[C@@H](O)CN1CCO [Compound 186]
**A:** 7.27

**Q:** Name the reported pEC50 value associated with the molecule CN1CC[C@@H](N2C(=O)S/C(=C\c3ccc4c(cnn4Cc4ccc(C(F)(F)F)cc4C(F)(F)F)c3)C2=O)[C@H](F)C1 (relative stereo) [Compound 278]
**A:** 7.15

**Q:** Name the reported pEC50 value associated with the molecule O=C(O)C(Cc1cccnc1)N1C(=O)S/C(=C\c2ccc3c(cnn3Cc3ccc(Cl)cc3C(F)(F)F)c2)C1=O (centres unmarked) [Compound 225]
**A:** 7.49

**Q:** Name the reported pEC50 value associated with the molecule O=C1S/C(=C\c2ccc3c(cnn3Cc3ccc(C(F)(F)F)cc3C(F)(F)F)c2)C(=O)N1C[C@H]1CN2CCC[C@H]2CO1 [Compound 208]
**A:** 6.87

**Q:** Name the reported pEC50 value associated with the molecule O=C1S/C(=C\c2ccc3c(cnn3Cc3ccc(Cl)cc3C(F)(F)F)c2)C(=O)N1[C@@H]1CNC[C@H]1O (relative stereo) [Compound 316]
**A:** 7.44

**Q:** Name the reported pEC50 value associated with the molecule COc1ccc(Cn2ncc3cc(/C=C4\SC(=O)N(CCN5CC[C@@H](F)C5)C4=O)ccc32)c(C(F)(F)F)c1 [Compound 13]
**A:** 7.37
